# System: Nakaseomyces glabratus
# assay summary: Fungicidal activity against Candida glabrata ATCC 90030 incubated for 24 hrs followed by replacement of medium without compound measured after 48 hrs
# Format: functional
quantity: MFC

* C=CC(=O)Nc1cc(C(=O)NCc2cn([C@H]3O[C@@H](C)[C@@H](O)[C@@H](O)[C@@H]3O)nn2)cc(C(=O)NCc2cn([C@H]3O[C@@H](C)[C@@H](O)[C@H](O)[C@@H]3O)nn2)c1 | > 10000 µg/mL
* C=CS(=O)(=O)Nc1cc(C(=O)NCc2cn([C@H]3O[C@@H](C)[C@@H](O)[C@@H](O)[C@@H]3O)nn2)cc(C(=O)NCc2cn([C@H]3O[C@@H](C)[C@@H](O)[C@H](O)[C@@H]3O)nn2)c1 | > 10000 µg/mL
* C=CC(=O)Nc1cc(C(=O)NCc2cn([C@H]3O[C@H](CO)[C@@H](O)[C@H](O)[C@@H]3O)nn2)cc(C(=O)NCc2cn([C@H]3O[C@H](CO)[C@@H](O)[C@H](O)[C@@H]3O)nn2)c1 | > 10000 µg/mL
